- tested_on: T1, HLA-A*02:01 (human)
- T1 construct: monomers captured on streptavidin plates; also called MHC class I
- test_protocol: UV peptide exchange ELISA
- Excerpt: Candidate peptides for T cell based therapies according to the present invention were further tested for their MHC binding capacity (affinity). The individual peptide-MHC complexes were produced by UV-ligand exchange, where a UV-sensitive peptide is cleaved upon UV-irradiation, and exchanged with the peptide of interest as analyzed. Only peptide candidates that can effectively bind and stabilize the peptide-receptive MHC molecules prevent dissociation of the MHC complexes. […]
Recorded peptide exchange yield for the following binders

Observe how each entry below is paired with its result.
QLLDETSAITL 50 to 75%
GLLGEKTQDLIGV 50 to 75%
SLYPGTETMGL 50 to 75%
YMDAPKAAL 20 to 50%
SQYSGQLHEV 50 to 75%
SVIPQIQKV 50 to 75%

INPUT: GET /values?readout=peptide exchange yield&item= "SMLEPVPEL"
OUTPUT: 50 to 75%

INPUT: Try this binder next: "ALYIGDGYVIHLA"
OUTPUT: 50 to 75%

INPUT: Then this binder: "VTFGEKLLGV"
OUTPUT: 20 to 50%

INPUT: One more binder: "KLYESLLPFA"
OUTPUT: 50 to 75%

INPUT: Also "FLIEPEHVNTV" , if possible.
OUTPUT: 20 to 50%
